Biological target: T1, human Y2 receptor (human, UniProt P49146 1-381)
T1 sequence (looked up): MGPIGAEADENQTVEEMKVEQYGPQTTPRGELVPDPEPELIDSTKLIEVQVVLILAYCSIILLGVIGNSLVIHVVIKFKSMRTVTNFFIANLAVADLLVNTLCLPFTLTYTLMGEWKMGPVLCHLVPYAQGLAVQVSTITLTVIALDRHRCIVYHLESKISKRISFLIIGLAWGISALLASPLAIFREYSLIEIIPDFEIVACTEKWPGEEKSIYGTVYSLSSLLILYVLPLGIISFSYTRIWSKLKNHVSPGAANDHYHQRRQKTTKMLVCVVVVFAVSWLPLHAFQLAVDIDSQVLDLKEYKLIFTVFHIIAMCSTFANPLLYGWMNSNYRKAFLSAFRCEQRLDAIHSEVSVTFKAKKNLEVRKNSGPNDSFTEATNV
Assay: cell-based or functional assay
Starred links: 1 amine or outer side, 2 acyl side, 3 side chain; linkers in the order of their positions; H or OH if unused. Non-standard residues stand in square brackets, D forms with d. No end group written: not given here. *: point of attachment. Ala(piperidin-4-yl) = O=C([C@H](CC1CCN([*:3])CC1)N[*:1])[*:2]; Morpholinocarbonyl = O=C(N1CCOCC1)*; Cha = N[C@@H](CC1CCCCC1)C(=O)O; Cit = NC(=O)NCCC[C@H](N)C(=O)O; 4Amb = NCc1ccc(C(=O)O)cc1; Ac3c = NC1(C(=O)O)CC1; Aib = CC(C)(N)C(=O)O; Bz = O=C(c1ccccc1)*
Please enter true where GBA EC50 Ratio (vs PYY(3-36)), [35S]GTPγS is greater than or equal to 7 ratio, and false where it is lower.

Completed entries (count: 5):
binder="[4Amb]RAYINAITRQRY-NH2 (N-terminus assumed; SMILES CC[C@H](C)[C@H](NC(=O)[C@H](C)NC(=O)[C@H](CC(N)=O)NC(=O)[C@@H](NC(=O)[C@H](Cc1ccc(O)cc1)NC(=O)[C@H](C)NC(=O)[C@H](CCCNC(=N)N)NC(=O)c1ccc(CN)cc1)[C@@H](C)CC)C(=O)N[C@H](C(=O)N[C@@H](CCCNC(=N)N)C(=O)N[C@@H](CCC(N)=O)C(=O)N[C@@H](CCCNC(=N)N)C(=O)N[C@@H](Cc1ccc(O)cc1)C(N)=O)[C@@H](C)O, also called compound No. 32) [4-Aminomethylbenzoyl-[Ala26,30, Ile28,31]-PYY(25-36)]" class=true
binder="Ac-S[dP]RE[Cha][Cha]NL[Aib]TRQR[Cha]-NH2 (SMILES CC(=O)N[C@@H](CO)C(=O)N1CCC[C@@H]1C(=O)N[C@@H](CCCNC(=N)N)C(=O)N[C@@H](CCC(=O)O)C(=O)N[C@@H](CC1CCCCC1)C(=O)N[C@@H](CC1CCCCC1)C(=O)N[C@@H](CC(N)=O)C(=O)N[C@@H](CC(C)C)C(=O)NC(C)(C)C(=O)N[C@H](C(=O)N[C@@H](CCCNC(=N)N)C(=O)N[C@@H](CCC(N)=O)C(=O)N[C@@H](CCCNC(=N)N)C(=O)N[C@@H](CC1CCCCC1)C(N)=O)[C@@H](C)O, also called compound No. 151) [Ac-[D-Pro24, Glu26, Cha27,28,36, Aib31]-PYY(23-36)]" class=true
binder="Ac-S[dP]RH[Cit][Cha]NL[Aib]TRQR[Cha]-NH2 (SMILES CC(=O)N[C@@H](CO)C(=O)N1CCC[C@@H]1C(=O)N[C@@H](CCCNC(=N)N)C(=O)N[C@@H](Cc1c[nH]cn1)C(=O)N[C@@H](CCCNC(N)=O)C(=O)N[C@@H](CC1CCCCC1)C(=O)N[C@@H](CC(N)=O)C(=O)N[C@@H](CC(C)C)C(=O)NC(C)(C)C(=O)N[C@H](C(=O)N[C@@H](CCCNC(=N)N)C(=O)N[C@@H](CCC(N)=O)C(=O)N[C@@H](CCCNC(=N)N)C(=O)N[C@@H](CC1CCCCC1)C(N)=O)[C@@H](C)O, also called compound No. 146) [Ac-[D-Pro24, Cit27, Cha28,36, Aib31]-PYY(23-36)]" class=false
binder="RYYASLRAYINLITRQRY-NH2 (also called compound No. 2) [[Ala26, Ile28,31]-PYY(19-36)]" class=false
binder="[4Amb]RA[Aib]INLITRQRY-NH2 (N-terminus assumed; SMILES CC[C@H](C)[C@H](NC(=O)[C@H](CC(C)C)NC(=O)[C@H](CC(N)=O)NC(=O)[C@@H](NC(=O)C(C)(C)NC(=O)[C@H](C)NC(=O)[C@H](CCCNC(=N)N)NC(=O)c1ccc(CN)cc1)[C@@H](C)CC)C(=O)N[C@H](C(=O)N[C@@H](CCCNC(=N)N)C(=O)N[C@@H](CCC(N)=O)C(=O)N[C@@H](CCCNC(=N)N)C(=O)N[C@@H](Cc1ccc(O)cc1)C(N)=O)[C@@H](C)O, also called compound No. 53) [4-Aminomethylbenzoyl-[Ala26, Aib27, Ile28,31]-PYY(25-36)]" class=true

In: Given Ac-S[dP]RH[Cha][Ac3c]NL[Aib]TRQR[Cha]-NH2 (SMILES CC(=O)N[C@@H](CO)C(=O)N1CCC[C@@H]1C(=O)N[C@@H](CCCNC(=N)N)C(=O)N[C@@H](Cc1c[nH]cn1)C(=O)N[C@@H](CC1CCCCC1)C(=O)NC1(C(=O)N[C@@H](CC(N)=O)C(=O)N[C@@H](CC(C)C)C(=O)NC(C)(C)C(=O)N[C@H](C(=O)N[C@@H](CCCNC(=N)N)C(=O)N[C@@H](CCC(N)=O)C(=O)N[C@@H](CCCNC(=N)N)C(=O)N[C@@H](CC2CCCCC2)C(N)=O)[C@@H](C)O)CC1, also called compound No. 145) [Ac-[D-Pro24, Cha27,36, Acpc28, Aib31]-PYY(23-36)] , state whether its GBA EC50 Ratio (vs PYY(3-36)), [35S]GTPγS is at least 7 ratio.
Out: true

In: Item Morpholinocarbonyl-D[dP]RH[Cha][Cha]NL[Aib]TRQR[Cha]-NH2 (SMILES CC(C)C[C@H](NC(=O)[C@H](CC(N)=O)NC(=O)[C@H](CC1CCCCC1)NC(=O)[C@H](CC1CCCCC1)NC(=O)[C@H](Cc1c[nH]cn1)NC(=O)[C@H](CCCNC(=N)N)NC(=O)[C@H]1CCCN1C(=O)[C@H](CC(=O)O)NC(=O)N1CCOCC1)C(=O)NC(C)(C)C(=O)N[C@H](C(=O)N[C@@H](CCCNC(=N)N)C(=O)N[C@@H](CCC(N)=O)C(=O)N[C@@H](CCCNC(=N)N)C(=O)N[C@@H](CC1CCCCC1)C(N)=O)[C@@H](C)O, also called compound No. 173) [Morpholinocarbonyl-[Asp23, D-Pro24, Cha27,28,36, Aib31]-PYY(23-36)] with GBA EC50 Ratio (vs PYY(3-36)), [35S]GTPγS of 7 ratio or above?
Out: false

In: API: above_or_equal(metric=GBA EC50 Ratio (vs PYY(3-36)), [35S]GTPγS, cutoff=7 ratio) for item [dL]RAYINLITRQRY-NH2 (N-terminus assumed; SMILES CC[C@H](C)[C@H](NC(=O)[C@H](Cc1ccc(O)cc1)NC(=O)[C@H](C)NC(=O)[C@H](CCCNC(=N)N)NC(=O)[C@H](N)CC(C)C)C(=O)N[C@@H](CC(N)=O)C(=O)N[C@@H](CC(C)C)C(=O)N[C@H](C(=O)N[C@H](C(=O)N[C@@H](CCCNC(=N)N)C(=O)N[C@@H](CCC(N)=O)C(=O)N[C@@H](CCCNC(=N)N)C(=O)N[C@@H](Cc1ccc(O)cc1)C(N)=O)[C@@H](C)O)[C@@H](C)CC, also called compound No. 24) [[D-Leu24, Ala26, Ile28,31]-PYY(24-36)]
Out: true

In: Is the recorded value of GBA EC50 Ratio (vs PYY(3-36)), [35S]GTPγS equal to or greater than 7 ratio for this binder? Bz-RH[Ala(piperidin-4-yl)]INWITRQR[Cha]-NH2 (also: Ala(4Pip) D or L form not assigned (later peak), Ala(4Pip) is any of D-form and L-form; also called compound No. 66) [Benzoyl-[Ala(4Pip)27, Ile28,31, Trp30, Cha36]-PYY(25-36)]
Out: false
